Recorded values, source patent US12391671B2.

- targetOfAssay: EGFR L858R (Homo sapiens (Human), UniProt P00533, L858R)
- Sequence (P00533 25-1210 L858R): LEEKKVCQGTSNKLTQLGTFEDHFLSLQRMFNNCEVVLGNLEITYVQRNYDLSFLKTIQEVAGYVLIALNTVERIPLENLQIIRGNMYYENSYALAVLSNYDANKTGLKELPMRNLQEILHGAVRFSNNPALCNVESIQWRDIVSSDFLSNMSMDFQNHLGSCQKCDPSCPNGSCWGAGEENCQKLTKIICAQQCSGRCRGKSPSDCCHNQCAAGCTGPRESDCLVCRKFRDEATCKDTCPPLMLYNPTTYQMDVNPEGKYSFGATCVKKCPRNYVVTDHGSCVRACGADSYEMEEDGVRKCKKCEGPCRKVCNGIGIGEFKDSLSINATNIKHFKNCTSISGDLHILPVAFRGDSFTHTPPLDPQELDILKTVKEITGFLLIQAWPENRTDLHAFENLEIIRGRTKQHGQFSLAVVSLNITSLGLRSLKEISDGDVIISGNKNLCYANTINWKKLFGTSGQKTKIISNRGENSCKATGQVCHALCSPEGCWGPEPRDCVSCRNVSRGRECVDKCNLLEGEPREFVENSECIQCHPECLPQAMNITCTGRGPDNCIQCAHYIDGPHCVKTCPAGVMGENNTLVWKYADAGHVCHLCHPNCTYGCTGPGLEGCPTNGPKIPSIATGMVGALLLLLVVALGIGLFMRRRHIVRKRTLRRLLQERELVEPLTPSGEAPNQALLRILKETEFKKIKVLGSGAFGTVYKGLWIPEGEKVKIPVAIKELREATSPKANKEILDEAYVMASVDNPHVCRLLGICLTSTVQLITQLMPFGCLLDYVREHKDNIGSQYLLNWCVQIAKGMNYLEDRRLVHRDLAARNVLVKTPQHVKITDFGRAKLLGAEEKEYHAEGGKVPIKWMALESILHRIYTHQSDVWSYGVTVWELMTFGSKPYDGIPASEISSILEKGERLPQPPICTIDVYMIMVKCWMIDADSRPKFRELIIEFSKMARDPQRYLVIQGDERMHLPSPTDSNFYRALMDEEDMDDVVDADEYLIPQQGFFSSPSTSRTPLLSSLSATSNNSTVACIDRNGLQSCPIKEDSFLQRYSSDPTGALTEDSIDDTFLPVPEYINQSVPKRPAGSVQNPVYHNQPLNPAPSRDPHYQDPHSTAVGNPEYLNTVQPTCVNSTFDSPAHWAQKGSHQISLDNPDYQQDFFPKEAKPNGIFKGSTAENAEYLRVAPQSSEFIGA
- experiment: HTRF-based EGFR biochemical assay (L858R)
- conditionDescription: 100 μM ATP, enzyme 0.1 nM
Counter-ions that a name gives are not always drawn.
readoutKind: IC50 (nM)

Here's what some known entries look like.
compound	readoutUnits	IC50
O=C1c2cc(-c3ccc(OC4CNC4)cc3)ccc2CN1C(c1nc2ccccc2[nH]1)c1cc(F)ccc1O (stereo not drawn) [Compound 091, dihydrochloride]	nM	12
CN1CCC(c2ccc(-c3ccc4c(=O)n(C(c5nc6ccccc6[nH]5)c5cc(F)ccc5O)ccc4c3)cc2)CC1 (racemic)	nM	9
CN1CCC(c2ccc(-c3ccc4c(c3)C(=O)N(C(c3cccc(F)c3)c3nc5cccnc5[nH]3)C4)cc2)CC1 (stereo not drawn)	nM	150

A: CN1CCC(c2ccc(-c3ccc4c(c3)C(=O)N(C(c3nc5cnccc5[nH]3)c3cc(F)ccc3O)C4)cc2)CC1 (stereo not drawn) [Compound 015, hydrochloride]
B: CN1CCC(c2ccc(-c3ccc4c(c3)C(=O)N(C(c3nc5cccnc5[nH]3)c3cc(F)ccc3O)C4)cc2)CC1 (stereo not drawn) [Compound 014, hydrochloride]
C: CN1CCC(c2ccc(-c3ccc4c(n3)C(=O)N([C@H](c3nc5ccccc5[nH]3)c3cc(F)ccc3O)C4)cc2)CC1 (single isomer, unassigned)
D: CN1CCC(c2ccc(-c3ccc4c(c3)C(=O)N(C(c3nc5nccnc5[nH]3)c3cc(F)ccc3O)C4)cc2)CC1 (stereo not drawn) [Compound 019, hydrochloride]
E: Cc1cc2cn(C(c3nc4ccccc4[nH]3)c3cc(F)ccc3O)nc2cc1-c1ccc(C2CCN(C)CC2)cc1 (stereo not drawn) [Compound 098, dihydrochloride]
Input: Sort these compounds on IC50 so the largest reading comes first. Sort and list the labels as requested.
Output: C, A, E, D, B

a: CN1CCC(c2ccc(-c3cc(F)c4c(=O)n(C(c5nc6ccccc6[nH]5)c5cc(F)ccc5O)ccc4c3)cc2F)CC1 (stereo not drawn) [Compound 111, dihydrochloride]
b: CN1CCC(c2ccc(-c3ccc4c(=O)n([C@@H](c5nc6ccccc6[nH]5)c5cc(F)ccc5O)ccc4c3)cc2)CC1 (single isomer, unassigned) [Compound 114]
c: COc1ccc(F)cc1C(c1nc2ccccc2[nH]1)n1cc2ccc(-c3ccc(C4CCN(C)CC4)cc3)c(F)c2n1 (stereo not drawn)
d: CN1CCC(c2ccc(-c3ccc4c(=O)n([C@@H](c5nc6ccccc6[nH]5)c5cc(F)ccc5O)ccc4c3)cc2)CC1 (single isomer, unassigned) [Compound 067]
e: CN1CCC(c2ccc(-c3ccc4ncn(C(c5nc6ccccc6[nH]5)c5cc(F)ccc5O)c(=O)c4c3F)cc2)CC1 (stereo not drawn) [Compound 004, 2,2,2-trifluoroacetate]
Input: Order each entry by recorded IC50, climbing from the minimum. Sort and list the labels as requested.
Output: e, b, a, d, c
